Biological target: T1, human CD98 on the cell surface (human)
T1 chain: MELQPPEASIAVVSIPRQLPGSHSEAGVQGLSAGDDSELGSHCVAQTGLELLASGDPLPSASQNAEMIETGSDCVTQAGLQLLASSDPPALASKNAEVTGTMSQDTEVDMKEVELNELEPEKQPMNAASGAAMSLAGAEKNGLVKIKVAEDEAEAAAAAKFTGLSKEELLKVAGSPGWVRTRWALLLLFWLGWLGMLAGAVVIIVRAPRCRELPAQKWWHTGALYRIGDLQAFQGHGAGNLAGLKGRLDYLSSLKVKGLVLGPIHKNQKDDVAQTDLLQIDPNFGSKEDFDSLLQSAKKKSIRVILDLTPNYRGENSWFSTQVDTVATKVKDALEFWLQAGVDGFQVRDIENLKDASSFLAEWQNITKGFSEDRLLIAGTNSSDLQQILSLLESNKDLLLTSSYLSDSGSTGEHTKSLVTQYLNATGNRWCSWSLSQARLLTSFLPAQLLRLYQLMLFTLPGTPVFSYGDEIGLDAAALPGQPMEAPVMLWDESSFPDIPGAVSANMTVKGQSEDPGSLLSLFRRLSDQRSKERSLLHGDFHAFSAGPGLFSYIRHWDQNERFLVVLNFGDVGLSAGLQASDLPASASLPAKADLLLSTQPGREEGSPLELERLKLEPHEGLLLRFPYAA
Experiment: cell-based or functional assay
As shown below, each of these binders has a reported ADC potency, IC50 (nM), H146 (SCLC) growth inhibition value.
Lab book: enter the figure in nM, no units written.

Quick check: ADC potency, IC50 (nM), H146 (SCLC) growth inhibition of ChAb15-CZ (other, synthon CZ on reduced interchain Cys of the constant regions (sites not numbered)) VH: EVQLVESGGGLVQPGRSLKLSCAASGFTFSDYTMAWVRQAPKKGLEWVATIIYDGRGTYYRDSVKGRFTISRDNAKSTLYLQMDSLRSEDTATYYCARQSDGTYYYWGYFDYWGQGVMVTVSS VL: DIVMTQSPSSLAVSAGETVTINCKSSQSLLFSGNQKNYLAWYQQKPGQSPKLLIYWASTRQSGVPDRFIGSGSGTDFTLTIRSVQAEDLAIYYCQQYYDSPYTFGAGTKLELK ? 0.194

Quick check: ADC potency, IC50 (nM), H146 (SCLC) growth inhibition of ChAb12-CZ (other, synthon CZ on reduced interchain Cys of the constant regions (sites not numbered)) VH: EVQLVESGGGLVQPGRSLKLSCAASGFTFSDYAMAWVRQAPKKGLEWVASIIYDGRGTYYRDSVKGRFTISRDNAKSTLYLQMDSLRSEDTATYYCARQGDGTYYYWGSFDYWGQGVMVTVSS VL: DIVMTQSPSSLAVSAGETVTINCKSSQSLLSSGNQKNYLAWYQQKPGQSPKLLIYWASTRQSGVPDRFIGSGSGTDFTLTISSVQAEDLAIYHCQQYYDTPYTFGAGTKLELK ? 0.242

Quick check: ADC potency, IC50 (nM), H146 (SCLC) growth inhibition of ChAb11-CZ (other, synthon CZ on reduced interchain Cys of the constant regions (sites not numbered)) VH: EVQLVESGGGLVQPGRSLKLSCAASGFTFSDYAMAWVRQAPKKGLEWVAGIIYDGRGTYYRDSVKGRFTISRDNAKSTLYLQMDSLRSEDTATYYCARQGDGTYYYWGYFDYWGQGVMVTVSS VL: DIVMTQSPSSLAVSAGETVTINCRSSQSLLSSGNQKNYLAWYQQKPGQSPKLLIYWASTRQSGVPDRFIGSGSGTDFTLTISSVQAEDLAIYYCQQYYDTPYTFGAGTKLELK ? 0.527

Just for reference, patent US20200121803A1 is where these values come from.
